The reported measurements were obtained from ChEMBL document CHEMBL1150423.

# TESTED_SYSTEM: Nitric oxide synthase, inducible (Mus musculus, UniProt P29477)
# Sequence (P29477 whole entry): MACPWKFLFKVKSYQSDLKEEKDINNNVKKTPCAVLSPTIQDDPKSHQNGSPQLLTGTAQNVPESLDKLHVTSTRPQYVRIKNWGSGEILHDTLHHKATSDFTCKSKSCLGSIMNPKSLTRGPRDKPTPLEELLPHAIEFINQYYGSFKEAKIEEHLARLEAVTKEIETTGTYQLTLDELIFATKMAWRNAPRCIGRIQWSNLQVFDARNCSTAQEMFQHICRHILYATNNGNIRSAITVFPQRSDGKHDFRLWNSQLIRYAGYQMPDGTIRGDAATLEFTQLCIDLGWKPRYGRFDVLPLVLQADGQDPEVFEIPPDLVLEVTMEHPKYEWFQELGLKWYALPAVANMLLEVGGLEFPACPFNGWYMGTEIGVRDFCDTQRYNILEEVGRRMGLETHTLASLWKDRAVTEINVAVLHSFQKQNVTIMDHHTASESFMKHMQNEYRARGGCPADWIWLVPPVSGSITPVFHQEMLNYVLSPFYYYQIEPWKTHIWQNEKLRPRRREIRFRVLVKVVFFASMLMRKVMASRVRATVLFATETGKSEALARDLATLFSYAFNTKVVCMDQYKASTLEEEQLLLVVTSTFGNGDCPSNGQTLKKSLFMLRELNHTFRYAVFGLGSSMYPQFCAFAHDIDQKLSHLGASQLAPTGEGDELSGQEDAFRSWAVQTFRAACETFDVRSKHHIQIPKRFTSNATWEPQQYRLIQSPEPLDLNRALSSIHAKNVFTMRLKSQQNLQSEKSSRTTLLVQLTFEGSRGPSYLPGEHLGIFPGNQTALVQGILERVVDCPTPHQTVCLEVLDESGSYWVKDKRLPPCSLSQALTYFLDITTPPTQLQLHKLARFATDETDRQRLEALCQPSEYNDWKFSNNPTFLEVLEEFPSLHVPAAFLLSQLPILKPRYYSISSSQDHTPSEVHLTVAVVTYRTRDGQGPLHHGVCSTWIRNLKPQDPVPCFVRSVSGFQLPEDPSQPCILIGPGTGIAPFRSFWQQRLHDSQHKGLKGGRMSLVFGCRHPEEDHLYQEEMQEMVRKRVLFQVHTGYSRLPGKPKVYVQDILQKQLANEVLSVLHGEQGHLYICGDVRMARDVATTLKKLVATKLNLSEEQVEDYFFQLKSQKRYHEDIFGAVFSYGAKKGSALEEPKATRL
# EXPERIMENT_DESCRIPTION: Inhibition of mouse recombinant iNOS
pIC50: −log10 of the molar value.

{"TEST_SMILES": "O=C(O)c1cccc2cn[nH]c12", "TESTED_SYSTEM": "Nitric oxide synthase, inducible (Mus musculus, UniProt P29477)", "PREFIX_OPERATOR": "<", "pIC50": 3.00}
{"TEST_SMILES": "Cn1ncc2cccc([N+](=O)[O-])c21", "TESTED_SYSTEM": "Nitric oxide synthase, inducible (Mus musculus, UniProt P29477)", "PREFIX_OPERATOR": "=", "pIC50": 3.12}
{"TEST_SMILES": "c1cc(-c2nnn[nH]2)c2n[nH]cc2c1", "TESTED_SYSTEM": "Nitric oxide synthase, inducible (Mus musculus, UniProt P29477)", "PREFIX_OPERATOR": "<", "pIC50": 3.00}
{"TEST_SMILES": "N#Cc1cccc2cn[nH]c12", "TESTED_SYSTEM": "Nitric oxide synthase, inducible (Mus musculus, UniProt P29477)", "PREFIX_OPERATOR": "=", "pIC50": 3.96}
